target: rat alpha-synuclein (rat, UniProt P37377 1-140)
method notes: direct ELISA on coated antigen;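 also: plates coated with recombinant human, mouse or rat alpha-synuclein, purified antibody titrated 10 µg/mL down to 0.6 ng/mL for 1 h, bound antibody detected by anti-rat HRP with TMB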
attribute measured: Bmax (O.D. at 450 nm)
A bare number is not enough; add the unit after it.

Problem: Request the reported Bmax (O.D. at 450 nm) associated with 1H5 (antibody, rat IgG2b, V domains shown, also called clone 1H5) VH: AVQLVESGGGLVQPKESLKISCAASGFTFSDAAMYWVRQAPGKGLELVARIRTKPNNYATYYADSVKGRFTISRDDSKSMVYLQMGNLKTEDTAMYYCSADFHYFDYWGQGVMVTVSS VL: DIQMTQSPSVLSASVGDRVTLSCKAGQNINKNLDWYQQKLGEAPKLLISFTNNLQTGVPSRFSGSGSGSDYTLTISSLQPEDVATYYCYQYNSGWTFGGGTKLELK
Solution: 0.2 OD
